Provide the recorded IC50 for the entries that follow.
Assay: Inhibitory activity against 20-Hydroxy-5,8,11,14-eicosatetraenoic acid synthase from arachidonic acid in human renal microsome
I only need the number, in nM, no unit after it.

Given the entry Cc1ccc(OCCCCCCCC(=O)O)c(C(=O)c2ccc(-n3ccnc3)cc2)c1 , report its measured IC50. 4800

Note, next up: Cc1cc(C(=O)c2ccc(-n3ccnc3)cc2)ccc1OCCCCCCCCCC(=O)O 73

Note, next up: Cc1ccc(OCCCCCC(=O)O)c(C(=O)c2ccc(-n3ccnc3)cc2)c1 3290

Note, next up: Cc1cc(C(=O)c2ccc(-n3ccnc3)cc2)ccc1OCCCCC(=O)O 12

Note, next up: Cc1cc(C(=O)c2ccc(-n3ccnc3)cc2)ccc1OCCCCCCCC(=O)O 44

Note, next up: Cc1cc(C(=O)c2ccc(-n3ccnc3)cc2)ccc1OCCCCCCC(=O)O 22

Note, next up: Cc1ccc(OCCCCCCC(=O)O)c(C(=O)c2ccc(-n3ccnc3)cc2)c1 2460

Note, next up: Cc1ccc(OCCCCC(=O)O)c(C(=O)c2ccc(-n3ccnc3)cc2)c1 8380

Note, next up: Cc1cc(C(=O)c2ccc(-n3ccnc3)cc2)ccc1OCCCCCC(=O)O 7.9

Note, next up: Cc1ccc(OCCCCCCCCCC(=O)O)c(C(=O)c2ccc(-n3ccnc3)cc2)c1 6740
